These data points were gathered from paper PMC9998351.

Assay: Oral pharmacokinetics and bioavailability in rats
Format: in vivo
Settings: female, Sprague Dawley, rat, plasma, po, 50 mg/kg, AUClast, female rats, 50 mg/kg PO, individual rat
Measure: AUC(0-t) (ng·h/mL)
Response body: numeric value in ng·h/mL, unit text excluded.

For the molecule shown here, "C[C@]12CC[C@H](n3ccnc3)CC1=CC[C@@H]1[C@@H]2CC[C@]2(C)C(n3cnc4ccccc43)=CC[C@@H]12" , give the reported AUC(0-t).
76800

###

Assay: Intravenous pharmacokinetics in rats
Format: in vivo
Details: female, Sprague Dawley, rat, plasma, iv, 1 mg/kg, Vss, female rats, 1 mg/kg IV, individual rat
Measure: Vd (L/kg)
Response body: numeric value in L/kg, unit text excluded.

For the compound shown here, "C[C@]12CC[C@H](n3ccnc3)CC1=CC[C@@H]1[C@@H]2CC[C@]2(C)C(n3cnc4ccccc43)=CC[C@@H]12" , give the reported Vd.
4.96

###

Test: Oral pharmacokinetics and bioavailability in rats
Assay type: in vivo
Conditions: female, Sprague Dawley, rat, plasma, po, 10 mg/kg, Tmax, female rats, 10 mg/kg PO, individual rat
Measure: Tmax (h)
Response body: numeric value in h, unit text excluded.

For the molecule shown here, C[C@]12CC[C@H](n3ccnc3)CC1=CC[C@@H]1[C@@H]2CC[C@]2(C)C(n3cnc4ccccc43)=CC[C@@H]12 [Compound 2] , give the reported Tmax.
6

###

Assay: Chronic dosing toxicity in male nude mice
Format: in vivo
Conditions: male, Nude, mouse, in vivo, ip
Measure: MTD at 14 days

For the compound shown here, C[C@]12CC[C@H](n3ccnc3)CC1=CC[C@@H]1[C@@H]2CC[C@]2(C)C(n3cnc4ccccc43)=CC[C@@H]12 [Compound 2] , give the reported MTD at 14 days.
25 to 50 mg/kg

###

Assay: Oral pharmacokinetics and bioavailability in rats
Type: in vivo
Settings: male, Sprague Dawley, rat, plasma, po, 10 mg/kg, Cmax, male rats, 10 mg/kg PO, individual rat
Measure: Cmax (ng/mL)
Response body: numeric value in ng/mL, unit text excluded.

For the compound shown here, C[C@]12CC[C@H](n3ccnc3)CC1=CC[C@@H]1[C@@H]2CC[C@]2(C)C(n3cnc4ccccc43)=CC[C@@H]12 [Compound 2] , give the reported Cmax.
702

###

Assay: Oral pharmacokinetics and bioavailability in rats
Type: in vivo
Details: female, Sprague Dawley, rat, plasma, po, 50 mg/kg, Cmax, female rats, 50 mg/kg PO, GeoMean
Measure: Cmax
Numeric answer plus unit only.

For the compound shown here, C[C@]12CC[C@H](n3ccnc3)CC1=CC[C@@H]1[C@@H]2CC[C@]2(C)C(n3cnc4ccccc43)=CC[C@@H]12 [Compound 2] , give the reported Cmax.
4500 ng/mL

###

Assay: Intravenous pharmacokinetics in rats
Format: in vivo
Conditions: male, Sprague Dawley, rat, plasma, iv, 1 mg/kg, T1/2, male rats, 1 mg/kg IV, GeoMean (third rat excluded)
Measure: half-life
Numeric answer plus unit only.

For the molecule shown here, C[C@]12CC[C@H](n3ccnc3)CC1=CC[C@@H]1[C@@H]2CC[C@]2(C)C(n3cnc4ccccc43)=CC[C@@H]12 [Compound 2] , give the reported half-life.
9.64 h

###

Experiment: Intravenous pharmacokinetics in rats
Assay type: in vivo
Conditions: male, Sprague Dawley, rat, plasma, iv, 1 mg/kg, Vss, male rats, 1 mg/kg IV, GeoMean (third rat excluded)
Measure: Vd
Numeric answer plus unit only.

For the compound shown here, "C[C@]12CC[C@H](n3ccnc3)CC1=CC[C@@H]1[C@@H]2CC[C@]2(C)C(n3cnc4ccccc43)=CC[C@@H]12" , give the reported Vd.
5.81 L/kg
